Test system: Cytospora mali
Test: Antifungal activity against Valsa mali at 200 mg/L by plate growth rate method
Type: functional
Conditions: read-out: GI
# inhibition of growth at 200 µg/mL >= 20% gives True, anything below gives False

Here's what some known entries look like.
INSERT INTO assay_data (smiles_string, group) VALUES
  ('CCn1cc(C(=O)O)c(=O)c2cc(F)c(N3CCN(C(=O)COc4ccccc4OC)CC3)cc21', 'False'),
  ('CCn1cc(C(=O)O)c(=O)c2cc(F)c(N3CCN(C(=O)c4c(C)oc(C)c4C)CC3)cc21', 'True'),
  ('CCn1cc(C(=O)O)c(=O)c2cc(F)c(N3CCN(C(=O)c4cccnc4)CC3)cc21', 'False'),
  ('CCn1cc(C(=O)O)c(=O)c2cc(F)c(N3CCN(C(=O)c4ccccc4)CC3)cc21', 'True'),
  ('CCn1cc(C(=O)O)c(=O)c2cc(F)c(N3CCN(C(=O)c4ccc(Br)o4)CC3)cc21', 'True');

Problem: Could you please find out whether CCn1cc(C(=O)O)c(=O)c2cc(F)c(N3CCN(C(=O)c4ccccc4Cl)CC3)cc21 has inhibition of growth at 200 µg/mL that meets 20% or exceeds it?
Result: True

----------
Test system: Fusarium graminearum
Assay: Antifungal activity against Gibberella zeae at 200 mg/L by plate growth rate method
Assay type: functional
Conditions: read-out: GI
# inhibition of growth at 200 µg/mL >= 20% gives criterion met, anything below gives criterion not met

Problem: Could you please find out whether CCn1cc(C(=O)O)c(=O)c2cc(F)c(N3CCN(C(=O)c4cc5ccccc5o4)CC3)cc21 has inhibition of growth at 200 µg/mL that meets 20% or exceeds it?
Result: criterion not met

Problem: Could you please find out whether CCn1cc(C(=O)O)c(=O)c2cc(F)c(N3CCN(C(=O)COc4ccccc4Cl)CC3)cc21 has inhibition of growth at 200 µg/mL that meets 20% or exceeds it?
Result: criterion not met

Problem: Could you please find out whether CCn1cc(C(=O)O)c(=O)c2cc(F)c(N3CCN(C(=O)c4ccccc4O)CC3)cc21 has inhibition of growth at 200 µg/mL that meets 20% or exceeds it?
Result: criterion not met

Problem: Could you please find out whether CCn1cc(C(=O)O)c(=O)c2cc(F)c(N3CCN(C(=O)c4oc5ccccc5c4C)CC3)cc21 has inhibition of growth at 200 µg/mL that meets 20% or exceeds it?
Result: criterion met

Problem: Could you please find out whether CCn1cc(C(=O)O)c(=O)c2cc(F)c(N3CCNCC3)cc21 [NORFLOXACIN] has inhibition of growth at 200 µg/mL that meets 20% or exceeds it?
Result: criterion not met

Problem: Could you please find out whether CCn1cc(C(=O)O)c(=O)c2cc(F)c(N3CCN(C(=O)c4ccccc4)CC3)cc21 has inhibition of growth at 200 µg/mL that meets 20% or exceeds it?
Result: criterion met

Problem: Could you please find out whether CCn1cc(C(=O)O)c(=O)c2cc(F)c(N3CCN(C(=O)c4ccc(Cl)cc4)CC3)cc21 has inhibition of growth at 200 µg/mL that meets 20% or exceeds it?
Result: criterion met

Problem: Could you please find out whether CCn1cc(C(=O)O)c(=O)c2cc(F)c(N3CCN(C(=O)/C=C/c4ccc(Cl)cc4Cl)CC3)cc21 has inhibition of growth at 200 µg/mL that meets 20% or exceeds it?
Result: criterion not met

----------
Test system: Xanthomonas oryzae
Assay: Antibacterial activity against Xanthomonas oryzae at 50 mg/L after 24 hrs by agar well diffusion method
Assay type: functional
Details: read-out: DIZ
ASSAY_ENDPOINT: zone of inhibition at 50 µg/mL (mm)
Give just the numeric value; mm need not be written.

INSERT INTO measurements (smiles_string, system_under_test, measure_unit, value_measured) VALUES
  ('CCn1cc(C(=O)O)c(=O)c2cc(F)c(N3CCN(C(=O)c4ccc(Br)o4)CC3)cc21', 'Xanthomonas oryzae', 'mm', 13),
  ('CCn1cc(C(=O)O)c(=O)c2cc(F)c(N3CCN(C(=O)c4ccccc4Br)CC3)cc21', 'Xanthomonas oryzae', 'mm', 16.5),
  ('CCn1cc(C(=O)O)c(=O)c2cc(F)c(N3CCN(C(=O)c4ccccc4)CC3)cc21', 'Xanthomonas oryzae', 'mm', 22.7),
  ('CCn1cc(C(=O)O)c(=O)c2cc(F)c(N3CCN(C(=O)c4oc5ccccc5c4C)CC3)cc21', 'Xanthomonas oryzae', 'mm', 5.44),
  ('CCn1cc(C(=O)O)c(=O)c2cc(F)c(N3CCN(C(=O)COc4ccccc4C)CC3)cc21', 'Xanthomonas oryzae', 'mm', 14.2);

Reported zone of inhibition at 50 µg/mL for CCn1cc(C(=O)O)c(=O)c2cc(F)c(N3CCN(C(=O)/C=C/c4ccc(Cl)cc4Cl)CC3)cc21 was 4.44

Reported zone of inhibition at 50 µg/mL for CCn1cc(C(=O)O)c(=O)c2cc(F)c(N3CCN(C(=O)COc4ccccc4)CC3)cc21 was 15.3

Reported zone of inhibition at 50 µg/mL for CCn1cc(C(=O)O)c(=O)c2cc(F)c(N3CCN(C(=O)/C=C/c4ccccc4)CC3)cc21 was 11.7

Reported zone of inhibition at 50 µg/mL for CCn1cc(C(=O)O)c(=O)c2cc(F)c(N3CCN(C(=O)c4cc5ccccc5o4)CC3)cc21 was 8.35

----------
Test system: Erwinia
Test: Antibacterial activity against Erwinia aroideae at 50 mg/L after 24 hrs by agar well diffusion method
Assay type: functional
Conditions: read-out: DIZ
Below is a list of entries, each paired with its recorded zone of inhibition at 50 µg/mL value.
Give just the numeric value; mm need not be written.

INSERT INTO assay_data (smiles_string, value_measured) VALUES
  ('CCn1cc(C(=O)O)c(=O)c2cc(F)c(N3CCN(C(=O)COc4ccccc4C)CC3)cc21', 13.4);

Item: CCn1cc(C(=O)O)c(=O)c2cc(F)c(N3CCN(C(=O)c4oc5ccccc5c4C)CC3)cc21 | System: Erwinia | zone of inhibition at 50 µg/mL: 5.94

Item: CCn1cc(C(=O)O)c(=O)c2cc(F)c(N3CCN(C(=O)/C=C/c4ccco4)CC3)cc21 | System: Erwinia | zone of inhibition at 50 µg/mL: 14.9

Item: CCn1cc(C(=O)O)c(=O)c2cc(F)c(N3CCN(C(=O)COc4ccccc4)CC3)cc21 | System: Erwinia | zone of inhibition at 50 µg/mL: 13.8

Item: CCn1cc(C(=O)O)c(=O)c2cc(F)c(N3CCN(C(=O)c4ccccc4O)CC3)cc21 | System: Erwinia | zone of inhibition at 50 µg/mL: 16.5

Item: CCn1cc(C(=O)O)c(=O)c2cc(F)c(N3CCN(C(=O)c4ccccc4Cl)CC3)cc21 | System: Erwinia | zone of inhibition at 50 µg/mL: 16

Item: CCn1cc(C(=O)O)c(=O)c2cc(F)c(N3CCN(C(=O)COc4ccc(OC)cc4)CC3)cc21 | System: Erwinia | zone of inhibition at 50 µg/mL: 15.2

Item: CCn1cc(C(=O)O)c(=O)c2cc(F)c(N3CCN(C(=O)/C=C/c4ccc(C)o4)CC3)cc21 | System: Erwinia | zone of inhibition at 50 µg/mL: 11.2

Item: CN[C@@H]1[C@H](O[C@H]2[C@H](O[C@H]3[C@H](O)[C@@H](O)[C@H](N=C(N)N)[C@@H](O)[C@@H]3N=C(N)N)O[C@@H](C)[C@]2(O)C=O)O[C@@H](CO)[C@H](O)[C@H]1O | System: Erwinia | zone of inhibition at 50 µg/mL: 0.5

----------
Below is a list of entries, each paired with its recorded inhibition of growth at 200 µg/mL value.
Test system: Cytospora mali
Assay: Antifungal activity against Valsa mali at 200 mg/L by plate growth rate method
Assay type: functional
Conditions: read-out: GI
Give just the numeric value; % need not be written.

INSERT INTO measurements (smiles_string, system_under_test, measure_unit, value_measured) VALUES
  ('CCn1cc(C(=O)O)c(=O)c2cc(F)c(N3CCN(C(=O)c4ccc(C)cc4)CC3)cc21', 'Cytospora mali', '%', 37),
  ('CCn1cc(C(=O)O)c(=O)c2cc(F)c(N3CCN(C(=O)COc4ccccc4Cl)CC3)cc21', 'Cytospora mali', '%', 12),
  ('CCn1cc(C(=O)O)c(=O)c2cc(F)c(N3CCN(C(=O)c4ccc(Cl)cc4)CC3)cc21', 'Cytospora mali', '%', 16),
  ('CCn1cc(C(=O)O)c(=O)c2cc(F)c(N3CCN(C(=O)Cc4cccc5ccccc45)CC3)cc21', 'Cytospora mali', '%', 0),
  ('CCn1cc(C(=O)O)c(=O)c2cc(F)c(N3CCN(C(=O)c4oc5ccccc5c4C)CC3)cc21', 'Cytospora mali', '%', 33);

Reported inhibition of growth at 200 µg/mL for CCn1cc(C(=O)O)c(=O)c2cc(F)c(N3CCN(C(=O)/C=C/c4ccc(OC)cc4)CC3)cc21 was 5

Reported inhibition of growth at 200 µg/mL for CCn1cc(C(=O)O)c(=O)c2cc(F)c(N3CCN(C(=O)COc4ccc(C(C)(C)C)cc4)CC3)cc21 was 14

Reported inhibition of growth at 200 µg/mL for CCn1cc(C(=O)O)c(=O)c2cc(F)c(N3CCN(C(=O)COc4ccc(Br)cc4)CC3)cc21 was 9

Reported inhibition of growth at 200 µg/mL for CCn1cc(C(=O)O)c(=O)c2cc(F)c(N3CCN(C(=O)COc4ccccc4)CC3)cc21 was 8

Reported inhibition of growth at 200 µg/mL for CCn1cc(C(=O)O)c(=O)c2cc(F)c(N3CCN(C(=O)c4cc(C)oc4C)CC3)cc21 was 29

Reported inhibition of growth at 200 µg/mL for CCn1cc(C(=O)O)c(=O)c2cc(F)c(N3CCN(C(=O)/C=C/c4ccco4)CC3)cc21 was 7

Reported inhibition of growth at 200 µg/mL for CCn1cc(C(=O)O)c(=O)c2cc(F)c(N3CCN(C(=O)c4cc5ccccc5o4)CC3)cc21 was 9
